- test-description: Anti-host cell activity: growth of Vero cells
- Format: cell-based, African Green Monkey
- setup-conditions: monkey, vero cells; Vero cell growth versus antiviral activity; read-out: Therapeutic ratio
value-kind: selectivity ratio

Return reported selectivity ratio; argument: O=c1[nH]c(=O)n([C@H]2C[C@H](O)[C@@H](CO)O2)cc1C(F)=C(F)Cl > 5

###

- setup-conditions: african green monkey, vero cells
value-kind: MCC at 144 h

>>> df
                                   compound    value_kind    obs_value
0  O=c1[nH]c(=O)n([C@H]2C[C@H](O)[C@@H](CO)O2)cc1C(F)=C(F)Cl  MCC at 144 h  > 200 µg/mL

Shifting focus to the compound that follows.
Return reported MCC at 144 h; argument: O=c1[nH]c(=O)n([C@H]2C[C@H](O)[C@@H](CO)O2)cc1I [5-iodo-2'-deoxyuridine, reference compound] > 100 µg/mL
